Reference for the values: patent US9034877B2

# Assayed target: D3 receptor (Rattus norvegicus)
# Sequence (P19020 whole entry): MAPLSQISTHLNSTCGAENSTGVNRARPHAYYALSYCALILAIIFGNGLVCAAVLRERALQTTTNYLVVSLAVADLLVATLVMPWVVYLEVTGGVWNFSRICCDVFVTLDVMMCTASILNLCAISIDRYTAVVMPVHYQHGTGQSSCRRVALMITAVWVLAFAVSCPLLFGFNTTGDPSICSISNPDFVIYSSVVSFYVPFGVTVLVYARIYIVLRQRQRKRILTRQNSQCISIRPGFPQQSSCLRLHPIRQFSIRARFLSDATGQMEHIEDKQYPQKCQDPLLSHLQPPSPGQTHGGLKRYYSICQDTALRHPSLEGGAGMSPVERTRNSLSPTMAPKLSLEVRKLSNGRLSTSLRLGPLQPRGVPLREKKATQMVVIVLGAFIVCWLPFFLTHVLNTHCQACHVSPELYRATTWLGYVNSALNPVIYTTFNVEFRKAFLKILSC
# Protocol description: Inhibition of [3H]spiperone binding to cloned D3 receptors expressed in HEK-293 cells
# Measurement context: [3H]spiperone, rat D3 in HEK-293 cells
Endpoint label: Ki (nM)

>  <Compound>
CCCN(CCN1CCN(C(=O)c2cc3ccccc3[nH]2)CC1)C1CCc2c(O)cccc2C1 (racemic) [Compound 40e]

>  <Reading unit>
nM

>  <Ki>
0.55

$$$$
>  <Compound>
CCCN(CCN1CCN(C(=O)c2cc3ccccc3[nH]2)CC1)C1CCc2ccc(O)cc2C1 (centres unmarked) [Compound 40c]

>  <Reading unit>
nM

>  <Ki>
3.72

$$$$
>  <Compound>
CCCN(CCN1CCN(C(=O)c2c[nH]c3ccccc23)CC1)C1CCc2c(O)cccc2C1 (centres unmarked) [Compound 40f]

>  <Reading unit>
nM

>  <Ki>
3.62

$$$$
>  <Compound>
CCCN(CCN1CCN(Cc2ccc3[nH]ccc3c2)CC1)C1CCc2ccc(O)cc2C1 (centres unmarked) [Compound 40b]

>  <Reading unit>
nM

>  <Ki>
3.87

$$$$
>  <Compound>
CCCN(CCN1CCN(c2ccnc3c(O)cccc23)CC1)C1CCc2c(O)cccc2C1 (centres unmarked) [Compound 19b]

>  <Reading unit>
nM

>  <Ki>
1.35

$$$$

I: CCCN(CCN1CCN(C(=O)c2n[nH]c3ccccc23)CC1)C1CCc2c(O)cccc2C1 (centres unmarked) [Compound 40g]
II: CCCN(CCN1CCN(C(=O)c2cc3ccccc3s2)CC1)C1CCc2c(O)cccc2C1 (centres unmarked) [Compound 40i]
Lookup: Could you tell me which of I and II has the lower Ki reading? # answer = label of selected item
Found: II

---

# Assayed target: UniProt:P19020
# Protocol description: Inhibition of [3H]spiperone binding to cloned D3 receptors expressed in HEK-293 cells
# Measurement context: [3H]spiperone, rat D3 in HEK-293 cells
Endpoint label: Ki (nM)

A: CCCN(CCN1CCN(Cc2ccc(O)c3ncccc23)CC1)C1CCc2c(O)cccc2C1 (stereo not drawn) [Compound 12b]
B: CCCN(CCN1CCN(Cc2ccc(O)c3ncccc23)CC1)C1CCc2ccc(O)cc2C1 (stereo not drawn) [Compound 12a]
C: CCCN(CCN1CCN(C(=O)c2ccc3[nH]ccc3c2)CC1)[C@H]1CCc2c(O)cccc2C1 [Compound (−)-45]
Lookup: Highest Ki first, then in falling order down to the smallest. List the labels according to the requested ordering.
Found: B, A, C
(B: 5.57 nM, A: 3.71 nM, C: 2.27 nM)

---

Structures can show the parent of a compound that is named as a salt.
Endpoint label: melting point

>  <Compound>
CCCN(CCN1CCN(C(=O)c2cc3ccccc3[nH]2)CC1)C1CCc2c(O)cccc2C1 (single isomer, unassigned; (-)) (as salt: HCl) [Compound (−)-40e]

>  <melting point>
168 to 169 °C

$$$$
>  <Compound>
CCCN(CCN1CCN(c2ccnc3c(O)cccc23)CC1)C1CCc2c(O)cccc2C1 (single isomer, unassigned; (+)) (as salt: hydrochloride) [(+)19b]

>  <melting point>
230 to 232 °C

$$$$
>  <Compound>
CCCN(CCN1CCN(c2ccc3[nH]ccc3c2)CC1)C1CCc2ccc(O)cc2C1 (stereo not shown) (as salt: oxalate)

>  <melting point>
179 to 183 °C

$$$$
>  <Compound>
CCCN(CCN1CCN(C(=O)c2c[nH]c3ccccc23)CC1)C1CCc2c(O)cccc2C1 (stereo not shown) (as salt: HCl) [Compound 40f]

>  <melting point>
147 to 151 °C

$$$$
>  <Compound>
CCCN(CCN1CCN(C(=O)c2cnc3ccccc3c2)CC1)C1CCc2c(O)cccc2C1 (stereo not shown) (as salt: HCl) [Compound 40j]

>  <melting point>
142 to 146 °C

$$$$
>  <Compound>
CCCN(CCN1CCN(C(=O)c2cc3ccccc3s2)CC1)C1CCc2c(O)cccc2C1 (stereo not shown) (as salt: HCl) [Compound 40i]

>  <melting point>
131 to 134 °C

$$$$
>  <Compound>
CCCN(CCN1CCN(Cc2ccc3[nH]ccc3c2)CC1)C1CCc2ccc(O)cc2C1 (stereo not shown) (as salt: oxalate) [Compound 40b]

>  <melting point>
198 to 203 °C

$$$$
>  <Compound>
CCCN(CCN1CCN(C(=O)c2cc3ccccc3[nH]2)CC1)C1CCc2c(O)cccc2C1 (single isomer, unassigned; (+)) (as salt: HCl) [Compound (+)-40e]

>  <melting point>
169 to 170 °C

$$$$

Lookup: Value lookup for melting point; key = CCCN(CCN1CCN(C(=O)c2n[nH]c3ccccc23)CC1)C1CCc2c(O)cccc2C1 (stereo not shown) (as salt: HCl) [Compound 40g]
Found: 167 to 170 °C
